Experiment: Metabolic stability assay, CD-1 mouse microsomes
Type: in vitro ADME
Details: both sexes; CD-1 mouse microsomes, 10 μM, 1 mg/ml protein, 37° C.; read-out: Metabolic Stability T ½ [min] mouse/(rat)
Would you mind telling me the reported half-life at 10 μM of each entry?

Solved entries (count: 3):
C[C@H]1COc2cccc(c2)-c2cccc(c2)C(=O)N(C)[C@H](C(=O)NCc2cccnc2)CCC(=O)N1	53 min
COc1ccc2c(c1)-c1cccc(c1)C(=O)N(C)[C@H](C(=O)Nc1ccccc1)CCC(=O)N[C@H](C)CO2	> 60 min
COc1ccc2c(c1)-c1cccc(c1)C(=O)N(C)[C@H](C(=O)NCC(F)(F)F)CCC(=O)N[C@H](C)CO2	> 60 min

Report half-life at 10 μM for every entry below.
1. C[C@H]1COc2cccc(c2)-c2cccc(c2)C(=O)N(C)[C@H](C(=O)NCCc2ccccc2)CCC(=O)N1
2. COc1ccc2c(c1)-c1cccc(c1)C(=O)N(C)[C@H](C(=O)NCC(=O)O)CCC(=O)N[C@H](C)CO2
3. COc1ccc2c(c1)-c1cccc(c1)C(=O)N(C)[C@H](C(=O)NCCCN)CCC(=O)N[C@H](C)CO2
4. COc1ccc2c(c1)-c1cccc(c1)C(=O)N(C)[C@H](C(=O)NC1CC1)CCC(=O)N[C@H](C)CO2
5. COc1ccc2c(c1)-c1cccc(c1)C(=O)N(C)[C@H](C(=O)NCCO)CCC(=O)N[C@H](C)CO2
6. C[C@H]1COc2cccc(c2)-c2cccc(c2)C(=O)N(C)[C@H](C(=O)NCC(F)(F)F)CCC(=O)N1
7. COc1ccc2c(c1)-c1cccc(c1)C(=O)N(C)[C@H](C(N)=O)CCC(=O)N[C@H](C)CO2

1. 1 min
2. > 60 min
3. > 60 min
4. > 60 min
5. > 60 min
6. > 60 min
7. > 60 min

Each recorded value in this set is attributed to patent US10017481B2.
